target: human GPR40 (Homo sapiens); test: FDSS-based intracellular calcium assay (Human GPR40 in vitro assay); assay type: cell-based; parameters: 3xFLAG; expressed in transfected cells; settings: intracellular Ca2+ response, cells expressing GPR40; read-out: hGPR40 EC50
Sequence (O14842 whole entry): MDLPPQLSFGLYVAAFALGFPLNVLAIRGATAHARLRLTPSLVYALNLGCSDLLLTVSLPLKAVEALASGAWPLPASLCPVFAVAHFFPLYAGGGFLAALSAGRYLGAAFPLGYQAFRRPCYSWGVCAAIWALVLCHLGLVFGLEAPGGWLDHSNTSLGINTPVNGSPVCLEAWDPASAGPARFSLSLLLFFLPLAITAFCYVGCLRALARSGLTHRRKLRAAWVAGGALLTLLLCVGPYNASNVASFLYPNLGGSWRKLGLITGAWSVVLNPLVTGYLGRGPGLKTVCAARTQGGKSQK
pEC50: −log10 of the molar value.
Parameter threshold = 6. Response is Condition met when pEC50 meets or exceeds it, else Condition not met.

Given COc1cccc(N2CCC(Cc3ccc(N4N=C(c5ccc(F)cc5)[C@@H](C)[C@@H]4CC(=O)O)cc3)CC2)c1 , state whether its pEC50 is at least 6.
Condition met

Given CC(C)CS(=O)(=O)N1CCC(Oc2ccc(N3N=C(C(F)(F)F)[C@@H](C)[C@@H]3CC(=O)O)cc2)CC1 , state whether its pEC50 is at least 6.
Condition not met

Given CCOc1ccc(F)c(N2CCC(Oc3ccc(N4N=C(C#N)C(C)C4CC(=O)O)cc3)C(C)C2)c1 (single isomer, unassigned) [Example B7, Isomer 1] , state whether its pEC50 is at least 6.
Condition met

Given COc1ccc(F)c(N2CCCC(Oc3ccc(N4N=C(C(F)(F)F)[C@@H](C)[C@@H]4CC(=O)O)cc3)C2)c1 (mixture of isomers) , state whether its pEC50 is at least 6.
Condition not met

Given COc1cc(N2CCC(Oc3ccc(N4N=C(C(F)(F)F)[C@@H](C)[C@@H]4CC(=O)O)cn3)C(C)C2)c(Cl)cn1 (single isomer, unassigned) [Example 103 Isomer 2] , state whether its pEC50 is at least 6.
Condition met

Given COc1cc(N2CCC(Oc3ccc(N4N=C(C(F)(F)F)[C@@H](C)[C@@H]4CC(=O)O)cn3)C(C)C2)c(Cl)cn1 (single isomer, unassigned) [Example 103 Isomer 1] , state whether its pEC50 is at least 6.
Condition met

Given COc1ccc(F)c(N2CC(COc3ccc(N4N=C(C(F)(F)F)[C@@H](C)[C@@H]4CC(=O)O)cc3)C2)c1 , state whether its pEC50 is at least 6.
Condition not met

Given C[C@@H]1C(C(F)(F)F)=NN(c2ccc(OC3CCN(c4cnc(Cl)cn4)CC3)cc2)[C@H]1CC(=O)O , state whether its pEC50 is at least 6.
Condition not met

Given C[C@@H]1C(C(F)(F)F)=NN(c2ccc(OC3CCN(c4ccc(C(F)(F)F)cn4)CC3)cc2)[C@H]1CC(=O)O , state whether its pEC50 is at least 6.
Condition not met

====

biological target: human GPR40 (Homo sapiens); experiment: FDSS-based intracellular calcium assay (Human GPR40 in vitro assay); format: cell-based; set-up: 3xFLAG; expressed in transfected cells; settings: intracellular Ca2+ response, cells expressing GPR40; read-out: hGPR40 EC50
quantity_name: pEC50
The quantity pEC50 is defined as the negative base-10 logarithm of the molar concentration.

Per the records, this molecule ( CCOc1ccc(F)c(N2CCC(Cc3ccc(N4N=C(C(F)(F)F)[C@@H](C)[C@@H]4CC(=O)O)cc3)C(C)C2)c1 (single isomer, unassigned) [Example 3 (Isomer 2)] ) has pEC50 equal to 6.33

Per the records, this molecule ( CCOc1ccc(F)c(N2CCC(Oc3ccc(N4N=C(c5ccc(C(=O)O)cc5F)[C@@H](C)[C@@H]4CC(=O)O)cc3)CC2)c1 ) has pEC50 equal to 5.31

Per the records, this molecule ( Cc1ccccc1S(=O)(=O)N1CCC(Oc2ccc(N3N=C(C(F)(F)F)[C@@H](C)[C@@H]3CC(=O)O)cc2)CC1 ) has pEC50 equal to 5.31

Per the records, this molecule ( COc1nc(N2CCC(Oc3ccc(N4N=C(C(F)(F)F)[C@@H](C)[C@@H]4CC(=O)O)cc3)CC2)ncc1F ) has pEC50 equal to 5.43

Per the records, this molecule ( CCOc1ccc(F)c(N2CCC(Oc3ccc(N4N=C(C(F)(F)F)[C@@H](C)[C@@H]4CC(=O)O)cc3)C(Cc3ccccc3)C2)c1 (single isomer, unassigned) [Example 28 (Isomer 1)] ) has pEC50 equal to 6.88

Per the records, this molecule ( Cc1nc2ccc(N3CCC(Oc4ccc(N5N=C(C(F)(F)F)[C@@H](C)[C@@H]5CC(=O)O)cc4)CC3)cc2o1 ) has pEC50 equal to 5.28

Per the records, this molecule ( C[C@@H]1C(C(F)(F)F)=NN(c2ccc(OC3CCN(c4cc(-n5cccn5)ccc4F)CC3)cc2)[C@H]1CC(=O)O ) has pEC50 equal to 5.34

Per the records, this molecule ( CCOc1ccc(F)c(N2CC[C@@H](Oc3ccc(N4N=C(c5ccc(S(C)(=O)=O)cc5)[C@@H](C)[C@@H]4CC(=O)O)cc3)[C@H](C)C2)c1 ) has pEC50 equal to 7.08

Per the records, this molecule ( COc1cc(N2CC3CCC(C2)C3Cc2ccc(N3N=C(C(F)(F)F)[C@@H](C)[C@@H]3CC(=O)O)cc2)c(Cl)cn1 (some centres unmarked) ) has pEC50 equal to 5.66

Per the records, this molecule ( C[C@@H]1C(C(F)(F)F)=NN(c2ccc(OC3CCN(S(=O)(=O)C4CCCCC4)CC3)cc2)[C@H]1CC(=O)O ) has pEC50 equal to 5.88

Per the records, this molecule ( COc1cc(N2CCC(Cc3ccc(N4N=C(C(F)(F)F)[C@@H](C)[C@@H]4CC(=O)O)cc3)CC2)c(Cl)cn1 ) has pEC50 equal to 6.29

Per the records, this molecule ( COc1cccc(N2CC3CCC(C2)C3Cc2ccc(N3N=C(C(F)(F)F)[C@@H](C)[C@@H]3CC(=O)O)cc2)c1 (some centres unmarked) ) has pEC50 equal to 5.24

Per the records, this molecule ( C[C@@H]1C(C(F)(F)F)=NN(c2ccc(OC3CCN(S(=O)(=O)c4ccccc4C(F)(F)F)CC3)cc2)[C@H]1CC(=O)O ) has pEC50 equal to 5.35

Per the records, this molecule ( C[C@@H]1C(C(F)(F)F)=NN(c2ccc(OC3CCN(S(=O)(=O)C4CCCC4)CC3)cc2)[C@H]1CC(=O)O ) has pEC50 equal to 5.44

Reference for the values: patent US9604964B2
